- tgt: human melanocortin-1 receptor hMCR-1 expressed by the human melanoma cell line HBL (human, UniProt Q01726 1-317)
- Sequence (Q01726 whole entry): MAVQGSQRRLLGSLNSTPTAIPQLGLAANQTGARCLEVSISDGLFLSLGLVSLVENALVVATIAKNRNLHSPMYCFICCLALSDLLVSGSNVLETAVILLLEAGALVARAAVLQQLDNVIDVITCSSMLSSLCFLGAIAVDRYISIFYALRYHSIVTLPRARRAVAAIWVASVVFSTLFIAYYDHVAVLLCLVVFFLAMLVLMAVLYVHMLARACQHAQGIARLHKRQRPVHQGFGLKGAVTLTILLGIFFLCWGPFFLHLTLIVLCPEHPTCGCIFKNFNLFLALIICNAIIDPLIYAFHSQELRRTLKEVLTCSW
- test.method.notes: cell-based or functional assay
Bridge positions count the residues as written; N and C are the ends. Square brackets hold non-standard residues; d marks the D form. Nle = CCCC[C@H](N)C(=O)O; Dab = NCC[C@H](N)C(=O)O; Dap = NC[C@H](N)C(=O)O
measured.parameter: MC-1 Emax (average; cAMP HBL) (%)
Write the number in % without appending the unit.

Please review the entries below; each comes with its answer.
Which MC-1 Emax (average; cAMP HBL) is listed for Ac-[Nle]EH[dF]G[Dab]W-NH2 (lactam 2-6; SMILES CCCC[C@H](NC(C)=O)C(=O)N[C@H]1CCC(=O)NCC[C@@H](C(=O)N[C@@H](Cc2c[nH]c3ccccc23)C(N)=O)NC(=O)CNC(=O)[C@@H](Cc2ccccc2)NC(=O)[C@H](Cc2c[nH]cn2)NC1=O) [Ac-Nle-cyclo(Glu-His-D-Phe-Gly-Dab)-Trp-NH2] ?
59

Name the recorded MC-1 Emax (average; cAMP HBL) for Ac-[Nle]EH[dF]A[Dab]W-NH2 (lactam 2-6; SMILES CCCC[C@H](NC(C)=O)C(=O)N[C@H]1CCC(=O)NCC[C@@H](C(=O)N[C@@H](Cc2c[nH]c3ccccc23)C(N)=O)NC(=O)[C@H](C)NC(=O)[C@@H](Cc2ccccc2)NC(=O)[C@H](Cc2c[nH]cn2)NC1=O) [Ac-Nle-cyclo(Glu-His-D-Phe-Ala-Dab)-Trp-NH2 (SEQ ID NO: 51)] .
72

Others:
Fill blank: measured MC-1 Emax (average; cAMP HBL) of the binder Ac-[Nle][Dap]H[dF]R[Dab]W-NH2 (linker 2-6 via C(:O)‑(CH2)2‑C(:O)) [Ac-Nle-cyclo(Dap-His-D-Phe-Arg-Dab)-Trp-NH2 with bridge C(═O)-(CH2)2-C(═O)] is ____.
85
